Cited source: patent US7713994B2

target: cyclin E/CDK2 enzyme (Homo sapiens, UniProt P24941); construct: made in house; host or cells: Sf9 insect cells, recombinant baculovirus; assay: CDK2 ELISA kinase assay (phospho-Rb ser 795 detection); type: biochemical; conditions: In Vitro Enzyme Assays, read-out: CDK2 IC50
pIC50: −log10 of the molar value.
metric_name: pIC50

INSERT INTO results (molecule, metric_name, value_prefix, data_value) VALUES
  ('CN1CCN(c2ccc(N/C=C3\C(=O)NC(=O)c4ccc(-c5ccc(C#N)cc5)cc43)cc2)CC1 [Example 153]', 'pIC50', '=', 5.37),
  ('CC(=O)Nc1ccc(CN/C=C2\C(=O)NC(=O)c3ccc(I)cc32)cc1O [Example 151]', 'pIC50', '=', 5.74),
  ('O=C1NC(=O)c2ccc(Br)cc2/C1=C/NCc1ccc(OCc2ccccc2)c(O)c1 [Example 147]', 'pIC50', '=', 4.56),
  ('CC(=O)Oc1ccc(CN/C=C2\C(=O)NC(=O)c3ccc(Br)cc32)cc1OC(C)=O [Example 54]', 'pIC50', '<', 4.30),
  ('O=C1NC(=O)c2ccc(-c3cccs3)cc2/C1=C/Nc1ccc(CN2CCC[C@H]2CO)cc1 (stereo in doubt) [Example 438]', 'pIC50', '<', 4.30),
  ('CN1CCN(c2ccc(N/C=C3\C(=O)NC(=O)c4ccc(NC(=O)Cc5cccs5)cc43)cc2)CC1 [Example 198]', 'pIC50', '=', 4.66),
  ('COc1cc(CN/C=C2\C(=O)NC(=O)c3ccc(-c4ccoc4)cc32)cc(O)c1OC [Example 87]', 'pIC50', '=', 5.09),
  ('CN(C)CCOc1ccc(N/C=C2\C(=O)NC(=O)c3ccc(Br)cc32)cc1 [Example 258]', 'pIC50', '<', 4.30);

====

target: cyclin B/CDK1 enzyme (Homo sapiens, UniProt P06493); construct: purchased New England BioLabs; host or cells: Sf9 insect cells, recombinant baculovirus; test: CDK1 ELISA kinase assay (phospho-Rb ser 795 detection); format: biochemical; conditions: In Vitro Enzyme Assays, read-out: CDK1 IC50
Sequence (P06493 whole entry): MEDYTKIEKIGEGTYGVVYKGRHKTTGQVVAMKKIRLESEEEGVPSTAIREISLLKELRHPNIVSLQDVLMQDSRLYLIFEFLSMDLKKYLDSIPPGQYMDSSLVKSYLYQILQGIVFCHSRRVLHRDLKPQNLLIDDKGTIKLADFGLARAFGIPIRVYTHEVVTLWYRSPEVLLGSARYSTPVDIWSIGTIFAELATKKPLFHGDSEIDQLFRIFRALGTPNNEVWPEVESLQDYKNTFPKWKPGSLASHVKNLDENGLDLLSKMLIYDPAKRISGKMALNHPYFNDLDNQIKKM
Sequence (P14635 whole entry partner): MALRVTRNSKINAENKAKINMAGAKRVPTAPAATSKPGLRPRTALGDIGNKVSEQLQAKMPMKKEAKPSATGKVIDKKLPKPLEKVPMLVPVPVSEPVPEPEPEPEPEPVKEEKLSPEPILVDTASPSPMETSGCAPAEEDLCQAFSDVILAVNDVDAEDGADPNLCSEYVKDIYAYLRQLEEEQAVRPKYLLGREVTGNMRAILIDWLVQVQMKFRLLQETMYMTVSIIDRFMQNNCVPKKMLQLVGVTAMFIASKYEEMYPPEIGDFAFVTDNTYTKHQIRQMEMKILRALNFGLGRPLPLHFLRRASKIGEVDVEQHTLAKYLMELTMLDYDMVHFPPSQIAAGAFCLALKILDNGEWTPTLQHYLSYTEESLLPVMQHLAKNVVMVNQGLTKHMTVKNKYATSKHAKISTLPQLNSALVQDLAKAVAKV
Known IC50 of a selection of molecules
metric_name: IC50 (µM)

INSERT INTO assay_data (molecule, metric_name, units_text, value_prefix, data_value) VALUES
  ('O=C1NC(=O)c2ccc(Br)cc2/C1=C/NCc1ccc(OCCN2CCCC2)c(O)c1', 'IC50', 'µM', '=', 13.6),
  ('CN(C(=O)CN1CCCCC1)c1ccc(N/C=C2\C(=O)NC(=O)c3ccccc32)cc1', 'IC50', 'µM', '>', 23),
  ('O=C1NC(=O)c2ccc(I)cc2/C1=C/Nc1ccc(N2CCN(CC3CC3)CC2)cc1', 'IC50', 'µM', '>', 50),
  ('CC(=O)Oc1cc(CN/C=C2\C(=O)NC(=O)c3ccc(Br)cc32)cc2c1OC(C)(C)O2', 'IC50', 'µM', '=', 1.2),
  ('CN(C)CC1CCN(c2ccc(N/C=C3\C(=O)NC(=O)c4ccc(I)cc43)cc2)CC1', 'IC50', 'µM', '>', 50),
  ('C=C(CN(C)C)C(=O)Nc1ccc(CN/C=C2\C(=O)NC(=O)c3ccc(I)cc32)cc1O', 'IC50', 'µM', '=', 13.8),
  ('CN1CCN(c2ccc3c(c2)/C(=C/Nc2ccc(CN4CCCCC4)cc2)C(=O)NC3=O)CC1', 'IC50', 'µM', '>', 50),
  ('CN1CCCC1c1ccc(NC=C2C(=O)NC(=O)c3ccc(I)cc32)cc1 (centres unmarked)', 'IC50', 'µM', '=', 45.5),
  ('CN1CCN(c2ccc(N/C=C3\C(=O)NC(=O)c4ccc(I)cc43)c(F)n2)CC1', 'IC50', 'µM', '>', 50),
  ('CN1CCN(c2ccc(N/C=C3\C(=O)NC(=O)c4ccc(C#Cc5ccsc5)cc43)cc2)CC1', 'IC50', 'µM', '=', 1.7),
  ('CN(C)C[C@@H]1CCCN1Cc1ccc(N/C=C2\C(=O)NC(=O)c3ccc(I)cc32)cc1', 'IC50', 'µM', '>', 50),
  ('CCCCOc1ccc(CN/C=C2\C(=O)NC(=O)c3ccc(Br)cc32)cc1O', 'IC50', 'µM', '>', 50),
  ('O=C1NC(=O)c2ccc(-c3ccoc3)cc2/C1=C/Nc1ccc(CN2CCCCC2)cc1', 'IC50', 'µM', '>', 50),
  ('NS(=O)(=O)c1ccc(CN/C=C2\C(=O)NC(=O)c3ccc(Br)cc32)cc1', 'IC50', 'µM', '=', 16.2),
  ('COc1ccc2c(c1)/C(=C/NCc1ccc(OC)c(O)c1)C(=O)NC2=O', 'IC50', 'µM', '=', 22.3),
  ('O=C1CC[C@@H](CN/C=C2\C(=O)NC(=O)c3ccc(I)cc32)N1 (stereo in doubt)', 'IC50', 'µM', '>', 50),
  ('CN1CCC(c2ccc(N/C=C3\C(=O)NC(=O)c4ccc(Br)cc43)cc2)CC1', 'IC50', 'µM', '>', 50);
